system: rabbit skeletal myofibrils (approximately 90% fast fibers); assay: Activation of fast skeletal myofibrils (PUMA coupled-enzyme ATPase assay); format: biochemical; settings: concentration at which the compound increased the enzymatic activity by 40%; calcium at pCa25; PM12 buffer pH 6.8
READOUT LABEL: AC1.4 (µM)

Answered examples (5):
Task: Value lookup for AC1.4; key = CCC[C@H]1C(=O)Nc2ccccc2N1C(=O)Nc1ccccc1OC [Compound 53]
Output: 0.55

Task: Same thing, different compound: CC(C)[C@H]1C(=O)Nc2ccccc2N1C(=O)c1cn[nH]c1 [Compound 86]
Output: 0.2

Task: // query: CC[C@H](C)[C@H]1C(=O)Nc2ccccc2N1C(=O)N1CCC[C@H](O)C1 [Compound 114]
Output: 1.69

Task: Entry to check: CC[C@H](C)[C@H]1C(=O)Nc2ccccc2N1C(=O)c1cnn(CCO)c1 [Compound 78]
Output: 0.16

Task: Queued: CC[C@H](C)[C@H]1C(=O)Nc2ccccc2N1C(=O)N1CC[C@H](CO)C1 [Compound 107]
Output: 0.44

I = CC[C@H](C)[C@H]1C(=O)Nc2ccccc2N1C(=O)c1cnn(CC(N)=O)c1 [Compound 80]
II = CCC[C@H]1C(=O)Nc2cccc(Br)c2N1C(=O)c1cnn(C)c1 [Compound 69]
Task: Lower value for measured AC1.4? Options: I , II Response format: the label of the selected entry.
Output: I
(I: 0.63 µM, II: 1.52 µM)

* * *

test system: rabbit skeletal myofibrils (approximately 90% fast fibers); assay: Activation of fast skeletal myofibrils (PUMA coupled-enzyme ATPase assay); type: biochemical; conditions: concentration at which the compound increased the enzymatic activity by 40%; calcium at pCa25; PM12 buffer pH 6.8
READOUT LABEL: AC1.4 (µM)

// worked examples, AC1.4 included
Task: Record request: AC1.4 value, item CCC[C@H]1C(=O)Nc2ccccc2N1C(=O)c1conc1C
Output: 1.66

Task: Entry to check: CC[C@H](C)[C@H]1C(=O)Nc2ccccc2N1C(=O)N1CCC[C@H](CO)C1
Output: 0.83

Task: Lookup CCC[C@H]1C(=O)Nc2ccccc2N1C(=O)Nc1ccc(C)nc1
Output: 2.73

Task: Another molecule to check: CCC[C@H]1C(=O)Nc2ccccc2N1C(=O)c1ccc(-n2cccc2)nc1
Output: 1.33

P = CC[C@H](C)[C@H]1C(=O)Nc2ccccc2N1C(=O)N[C@H]1CCN(C)C1
Q = CC[C@H](C)[C@H]1C(=O)Nc2ccccc2N1C(=O)c1ccc(=O)[nH]c1
R = CCC[C@H]1C(=O)Nc2ccccc2N1C(=O)NCC1CCCCC1
S = CC(C)[C@H]1C(=O)Nc2ccccc2N1C(=O)c1cnn(C2CC2)c1
T = CC(C)[C@H]1C(=O)Nc2ccccc2N1C(=O)c1ccc(=O)[nH]c1
Task: Arrange these 5 molecules in increasing order of AC1.4. Provide the labels, sequenced as the question asks.
Output: Q, T, S, R, P
(Q: 0.05 µM, T: 0.15 µM, S: 0.29 µM, R: 0.48 µM, P: 1.3 µM)

* * *

system: rabbit skeletal myofibrils (approximately 90% fast fibers); assay: Activation of fast skeletal myofibrils (PUMA coupled-enzyme ATPase assay); assay type: biochemical; conditions: concentration at which the compound increased the enzymatic activity by 40%; calcium at pCa25; PM12 buffer pH 6.8
READOUT LABEL: AC1.4 (µM)

Task: Would you mind telling me what AC1.4 value was observed for CCC[C@H]1C(=O)Nc2ccccc2N1C(=O)Nc1cccc(C)c1 [Compound 61] ?
Output: 0.43

Task: Please give the result for CCC[C@H]1C(=O)Nc2ccccc2N1C(=O)c1ccc(OC(F)F)nc1 [Compound 24] too.
Output: 0.4

Task: Entry to check: CCC[C@H]1C(=O)Nc2ccccc2N1C(=O)c1ccc(N(C)C2CC2)nc1 [Compound 37]
Output: 0.58

Task: Also need CCC[C@H]1C(=O)Nc2ccccc2N1C(=O)c1ccc(Cl)nc1 [Compound 5] , thanks.
Output: 0.38

Task: Note, next up: CC[C@H](C)[C@H]1C(=O)Nc2cnccc2N1C(=O)c1ccc(=O)n(C)c1 [Compound 91]
Output: 0.72

A = CCC[C@H]1C(=O)Nc2ccccc2N1C(=O)c1ccc(N2CCC(F)C2)nc1 (stereo partly drawn) [Compound 41]
B = CCC[C@H]1C(=O)Nc2ccccc2N1C(=O)c1cnn(CC)c1 [Compound 30]
Task: // pick min by AC1.4: A , B Respond with the label that goes with your answer.
Output: B

I = CCC[C@H]1C(=O)Nc2ccccc2N1C(=O)CCc1ccccc1 [Compound 19]
II = CCCC1C(=O)Nc2ccccc2N1C(=O)c1ccc(Cl)nc1 (stereo not drawn) [Compound 1]
Task: Please choose the item with the lower AC1.4 value from this pair: I and II Kindly give the label for the entry you pick.
Output: II
(II: 0.45 µM, I: 1.46 µM)
